TEST_SYSTEM: RAC-gamma serine/threonine-protein kinase (Homo sapiens, UniProt Q9Y243, S472D)
Sequence (Q9Y243 2-479 S472D limits assumed): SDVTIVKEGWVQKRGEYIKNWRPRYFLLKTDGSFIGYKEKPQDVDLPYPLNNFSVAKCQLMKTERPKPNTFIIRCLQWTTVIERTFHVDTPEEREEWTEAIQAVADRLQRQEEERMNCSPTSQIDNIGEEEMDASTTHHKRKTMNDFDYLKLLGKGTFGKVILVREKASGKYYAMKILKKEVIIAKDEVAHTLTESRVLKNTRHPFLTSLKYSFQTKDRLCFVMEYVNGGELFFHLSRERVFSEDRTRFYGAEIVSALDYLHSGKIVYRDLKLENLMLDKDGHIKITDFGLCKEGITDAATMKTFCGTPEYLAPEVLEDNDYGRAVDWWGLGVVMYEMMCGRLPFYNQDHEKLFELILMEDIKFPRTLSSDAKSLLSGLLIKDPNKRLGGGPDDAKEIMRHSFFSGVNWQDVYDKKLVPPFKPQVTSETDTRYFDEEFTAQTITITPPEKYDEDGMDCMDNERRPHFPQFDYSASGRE
RUN_DESCRIPTION: Inhibition of full length human Akt3 S472D mutant using GRPRTSSFAEGKK as substrate incubated for 40 mins by scintillation counting method
pIC50: −log10 of the molar value.
VALUE_KIND: pIC50

Answered examples (3):
COMPOUND	TEST_SYSTEM	pIC50
CCNCC(C(=O)N1CCN(c2ncnc3sc4c(c23)CCC4)CC1)c1ccc(Cl)cc1 (stereo not given)	RAC-gamma serine/threonine-protein kinase (Homo sapiens, UniProt Q9Y243, S472D)	7.00
O=C(C(CNC1CCCC1)c1ccc(Cl)cc1)N1CCN(c2ncnc3sc4c(c23)CCC4)CC1 (stereo not given)	RAC-gamma serine/threonine-protein kinase (Homo sapiens, UniProt Q9Y243, S472D)	6.89
CC(C)NCC(C(=O)N1CCN(c2ncnc3sc4c(c23)CCC4)CC1)c1ccc(Br)cc1 (stereo not given)	RAC-gamma serine/threonine-protein kinase (Homo sapiens, UniProt Q9Y243, S472D)	7.02

[I] CCCCNCC(C(=O)N1CCN(c2ncnc3sc4c(c23)CCC4)CC1)c1ccc(Cl)cc1 (stereo not given)
[II] O=C(C(CNC1CCCCC1)c1ccc(Cl)cc1)N1CCN(c2ncnc3sc4c(c23)CCC4)CC1 (stereo not given)
stdin: Could you tell me which of I and II has the lower pIC50 reading? State your choice using its label.
stdout: I

This collection of values is drawn from ChEMBL document CHEMBL4680191.
